experimental_details: yeast display, Sf9 membrane polyspecificity reagent, FACS + sequencing; frameworks hold sequencing errors
measured_quantity: polyreactivity (PSR sort gate)

Reference set, count: 5
QVQLVESGGGLVQAGGSLRLSCAASGRIFAQYAMGWYRQAPGKEREFVAAITGSTDSTYYADSVKGRFTISRDNAKNTVYLQMNSLKPEDTAVYYCAKDDAYSTIIDYEYSYDYWGQGTQVTVSS | high polyreactivity
QVQLVESGGRLVQAGGSLRLSCAASGITFIDYAMGWYRQAPGKERELVAAIRYSAGSTYYADSVKGRFTISRDNAKNTVYLQMNSLKPEDTAVYYCARTTPSGRQYRRYDYWGQGTQVTVSS | low polyreactivity
QVQLVESGAGLVQAGGSLRLSCAASGFTFPVYAMGWNRQAPGKERELVAAISWSGGGTYYADSVKGRFTISRDIAKNTVYLQMNSLNPEDTAVHYCAARWYYYPLMYDYWGQGTQVTVSS | low polyreactivity
QVQLVESGGGLVQAGGSLRLSCAASGFTFISNAMGWYRQAPGKERELVAAISSSGGRTYYADSVKGRFTISRDNAKNTVYLQMNRLKPEDTAVYYCYADRSLLYSRKIEYDYWGQGTQVTVSS | low polyreactivity
QVQLVESGGGLVQAGGSLRLSCAASGIIFYDYAMGWYRQAPGKERELVAAITSGGSTNYADSVKGRFTISRDNAKNTVYLQMNSLKPEDTAVYYCAATYWSWISLRFYWGQGTQVTVSS | low polyreactivity

Requested field: polyreactivity (PSR sort gate). Item: QVQLVESGGGLDQAGGSLRLSCAASGFIFQRYTLGWYRQAPGKERELVAAITSGGRTYYADSVKGRFTISRDNAKNTVYLQMNSLKPEDTAVYYCNARGRASRHSGYDYWGQGTQVTVSS
high polyreactivity

Requested field: polyreactivity (PSR sort gate). Item: QVQLVESGGGLVQAGGSLRLSCAASGITLATNAMGLYRQAPGKERELVAAINSGGITKYADSVKGRFTISRDNEKNTVYLQMNSLKPEDTAVYYCAADLEPRTNAPGLPTPDGYYWGQGTQVTVSS
low polyreactivity

Requested field: polyreactivity (PSR sort gate). Item: QVQLVESGGGLVQAGGSLRLSCAASGFIFKSYAMGWYRQAPGKERELVAAITSGGSTYYADSVKGRFTISRDNAKNTVYLQMNSLKPEDTAVYYCATRYRFGWGLSWYDYWGQGTQVTVSS
high polyreactivity

Requested field: polyreactivity (PSR sort gate). Item: QVQLVESGGGLVQAGGSLRLSCAASGSIFGGYTMGWYRQAPGKERELVAAISRRGGNTYYADSVKGRFTISRDYAKNTVYLHMKSMKPEDTAVYYCAVRWPSARIPVKLDYWGQGTQVTVSS
high polyreactivity

Requested field: polyreactivity (PSR sort gate). Item: QVQLLESGGGLVQAGGSLRLSCSASGITFFVYDMGWYRQAPGKERDLVAAITWAGDSTYYADSVKGRFTISRDNAKNTVYLQMNSLKPEDTAVYYCAAQFDVYYSRQPYDYNRSGYWGQGTQVTVSS
low polyreactivity

Requested field: polyreactivity (PSR sort gate). Item: QVQLVESGGGLVQAGGSLRLSCAASGSTFLGNAMGWYRQAPGKERELVATITGSSGSTYYADSVKGRFTISRDNAKNTVYLQMNSLKPEDTAVYYCNTVYNYWDGYDYWGQGTQVTVSS
low polyreactivity

###

experimental_details: yeast display, Sf9 membrane polyspecificity reagent, FACS + sequencing; frameworks hold sequencing errors
measured_quantity: polyreactivity (PSR sort gate)

QVQLVESGGGLVQAGGSLRLSCAASGRTFHGNAKGWYRTAPGKERELVAAISYSGGRTYYADSVKARFTISRDNAKNTVYLQMNSLKPEDTAVYYCAAWGSSYSFDYWGQGTQVTVSS | high polyreactivity
QVQLVESGGGLVQAGGSLRLSCAASGSTFLINAMGWYRQAPGKERELVAAITGRGGSTYYADSVKGRFTISRDNAKNTVYLQMNSLKPEDTAVYYCNAERLGTGYRYDYWGQGTQVTVSS | high polyreactivity
QVQLVESGGGLVQAGGSLRLSCAASGRTFNYYAMGWYRQAPGKERELVAAISSRGGTYYADSVKGRFTISRDNAKNTVYLQMNSLKPEDTAVYYCNAVHYDTISDYWGQGTQVTVSS | high polyreactivity
QVQLVESGGGLVQAGGSLRLSCAASGIIFYSYAMGWYRPAPGKERELVAAISTGSSTNYADSVKGRFTISRDNAKNTVYLQMNSLKPEDTAVYYCAKSTAVKPYAYRESGFIYDYWGQGTQVTVSS | low polyreactivity

Let us examine a further case.
Requested field: polyreactivity (PSR sort gate). Item: QVQLVESGGGLVQAGGSLRLSCAASGLTFGGNAMGWYSQAPGKERELVAALSWSDDTTDYADSVKGRFTISRDNAKYTVYLQMNSLKPEDTAVYYCAARLPFEHVDYWGQGTQVTVSS
low polyreactivity

###

experimental_details: yeast display, Sf9 membrane polyspecificity reagent, FACS + sequencing; frameworks hold sequencing errors
measured_quantity: polyreactivity (PSR sort gate)

Reference set, count: 4
QVQLVESGGGLVQAGGSLRLSCAASGSIITYYAMGGYRQAPGKERELVAGISARGGSTRYADSVKGRFTISRDNAKNTVYLQMNSLKPEDTAVYYCAADSRTNGYDYWGQGTQVTVSS | high polyreactivity
QVQLVESGGGLVQAGGSLRLSCAASGSTFGLNAMGWYRQAPGKERELVAAISYSDTTTYYADSVKGRFTISRDNAKNTVYLQMNSLKPEDTAVYYCAAEGDYAFLYDYWGQGTQVTVSS | high polyreactivity
QVQLVESGGGLVQAGGSLRLSCAASGSIFYYYAMGWYRQAPGKERELVAAISGTGGSTYYADSVKGRFSISRDNAKNTVYLQMNSLKPEDTAVYYCAASFYIERHRYNYWGQGTQVTVSS | high polyreactivity
QVQLVESGGGLVQEGGSLRLSCAASGSTFVINAMGWYRQAPGKERELVADIDYRGGSTNYSDSVKGRFTISRDNAKNTVYLQMNSLKPEVTAVYYCNKRYVIRRRGYDYWGQGTQVTVSS | low polyreactivity

Let us examine a further case.
Requested field: polyreactivity (PSR sort gate). Item: QVQLVESGGGLVQAGGSLRLSCAASGRTFYANTMGRYRQAPGTERELVAGITSGGSTSYADSVKGRFTISRDNAKNTVYLQMNSLKPEDTAVYYCAAQFYRYTATGYYADGYWGQGTQVTVSS
low polyreactivity

###

experimental_details: yeast display, Sf9 membrane polyspecificity reagent, FACS + sequencing; frameworks hold sequencing errors
measured_quantity: polyreactivity (PSR sort gate)

QVQLEESGGGLVQAGGSLRLSCAASGFTIGVYAMGWYRQAPGKERELVAAISARGGSTYYADSVKGRFTISRDNAKKTVYLQMNSLKPEDTAVFYCAVVLKYVSADQMDYWGQGTQVTVSS | high polyreactivity
QVQLVESGGGLVQAGGSLRLSCAASGFIFRRYTMGWYRQAPGKERELVAAISWTGGSTYYADSVKGRFTISRDNAKNTVYLQINRLKPEDTAVYYCNAVLYTPVYDGFDSWGQGTQVTVSS | high polyreactivity

###

experimental_details: yeast display, Sf9 membrane polyspecificity reagent, FACS + sequencing; frameworks hold sequencing errors
measured_quantity: polyreactivity (PSR sort gate)

Reference set, count: 10
QVQLVESGGGLVQAGGSLRLSCAASGRTLAPYAMGWYRQAPGKERELVAISTIGGSTYYADSVKGRFTISRDNAKNTVYLQMNSLKPEETAVYYGAADGNSTGVYLAGGEGFAYDYWGQVTQVTVSS | low polyreactivity
QVQLVESGGGLVQAGGSLRLSSAASGNINSWNTMGWYRQAPGKERELVAAITFRGTRTFYADSVKGRFTISRDNAKNTVYLQMNSLKPDDTAVFYCAARYYYSYSLGYDYWGQGTQVTVSS | high polyreactivity
QVQLVESGGGLVQAGGSLRLSCAASGSTFGVYAMVWYRQAPGKERELVAAINYSGRTYYADSVKGRFTISRDNAKNTVYLQMNSLKPEDTAVYYCAARIIVDDVGTKYYYWGQGTQVTVSS | high polyreactivity
QVQLVESGGGLVQAGGSLRLSCAASGLTFCRYVMGWYRQAPVKERELVAAITSGDSTNYADSVKGRFTISRDNAKNTVYLQTYSLITEVTAGYYCAADYWYRYYIGRNPWECITFDYWGQGTQVTVSS | low polyreactivity
QEQLQESGGGLVKAGGSLRLSCAASGNISNHNDMGWYRQAPGKEREFVAGITAGGITNYADSVKGRFTISRDNAKNTVYLQMNSLKPEDTAVYYCAAYPDYAKSYGYWGQGTQATVSS | low polyreactivity
QVQLVESGGGLVQAGGSLRLSCAASGFIFFRNAMGWYRQAPGKERELVAAISSNGGRTYYADSVKGRFTISRDNAKNTVYLQMNSLTPEDTAVYYCAAANPGSEYDYWGQGTQVNVSS | high polyreactivity
QVQLVESGGGLVQAGGSLRISCAASGRILYRYAMGRYRQAPGKERELVAAITWRGGTTYYADSVKGRFTISRDNAKNTVYLQMNSLKPEDTAVYYCNADWWRTLESDYWGQGTQVTVSS | low polyreactivity
QVQLVESGGGLVQAGGSLRLSCAASGSIFKSYAMGWYRQAPGKERELVAVISDSGSTYYADSVKGRFTISRDNAKNTVYLQKNSLKPEDTAVYYCRGRGRRNEYWGQGTQVTVSS | high polyreactivity
QVQLVESGGGLVQAGGSLRLSCAASGITFRFYALGWYRKAPGKEREFVAAISSRGGRTYYADSVKGRFTISRDHAKNTVYLQMNSLKPEDTAVYYCAADFYYRTVATVTSVARYDYWGQGTQVTVLS | high polyreactivity
QVQLVESGGLLVQAGGSLRLSCAASGSTFYYNDMGWYRQAPGKEREFVAAISSRGGSTYDADSVKGRFTISRDNAKNTVYLQMNSLKPEDTAVYYCAAKDRHRYDWGQGTQVTVSS | high polyreactivity

Requested field: polyreactivity (PSR sort gate). Item: QVQLVESGGRLVQAGGILRLSCAASGSTFDKNAMGWYRQAPGKERQLVAAINNGGGTTYYADSVKGRFTISRDNAKNTVYLQMNSLKPEDTAVYYCAAVGKAYWSDYQYRYYYWGQGTQVTVSS
low polyreactivity

Recorded values, source the nanobody polyreactivity screen of Harvey et al. (2022).
